Parameter: pIC50. Scope: all listed entries.
# Measurement target: PDE4D (Homo sapiens)
# Construct: PDE4D: The catalytic domain of human PDE4B from S3 16-V692; His6 (N); thrombin cleavage site (N); made in house; host or cells: E. coli
# Sequence (Q08499 380-756): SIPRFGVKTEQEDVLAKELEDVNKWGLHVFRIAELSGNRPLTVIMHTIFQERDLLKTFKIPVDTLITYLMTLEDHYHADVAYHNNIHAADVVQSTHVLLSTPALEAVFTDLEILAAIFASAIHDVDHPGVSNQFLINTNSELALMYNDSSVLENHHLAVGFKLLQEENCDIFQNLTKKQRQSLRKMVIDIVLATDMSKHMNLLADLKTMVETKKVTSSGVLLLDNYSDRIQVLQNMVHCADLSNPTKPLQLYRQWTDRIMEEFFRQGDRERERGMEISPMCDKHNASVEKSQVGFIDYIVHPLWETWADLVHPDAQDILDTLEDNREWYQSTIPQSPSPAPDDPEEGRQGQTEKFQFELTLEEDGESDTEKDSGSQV
# Test name: PDE4 IC50 determination by Scintillation Proximity Assay, PDE4D
# Format: biochemical
# Condition details: Table 1B, Formula I compounds; read-out: IC50 PDE4D
pIC50: −log10 of the molar value.
Readout kind: pIC50

[[record]]
molecule = "N#Cc1c(Nc2ccc(Oc3ccccc3)cc2)sc(C(=O)c2ccccc2Cl)c1N [Compound 1-161]"
readout_kind = "pIC50"
result = "< 5.00"

[[record]]
molecule = "COc1ccc(C(=O)c2sc(NC3CCCC3)c(C#N)c2N)c(OC)c1 [Compound 1-43]"
readout_kind = "pIC50"
result = "> 5.00"

[[record]]
molecule = "COc1ccc(C(=O)c2sc(NCCN3CCCCC3)c(C#N)c2N)c(OC)c1 [Compound 1-41]"
readout_kind = "pIC50"
result = "< 5.00"

[[record]]
molecule = "Cc1onc(-c2ccccc2)c1C(=O)c1sc(Nc2ccc(C(=O)NC3CCOC3=O)cc2)c(C#N)c1N (stereo not drawn) [Compound 1-133]"
readout_kind = "pIC50"
result = "> 5.00"

[[record]]
molecule = "N#Cc1c(Nc2ccc(C(=O)NC3CCOC3=O)cc2)sc(C(=O)c2ccccn2)c1N (stereo not drawn) [Compound 1-151]"
readout_kind = "pIC50"
result = "< 5.00"

[[record]]
molecule = "N#Cc1c(NC2CCCC2)sc(C(=O)c2cc(-c3ccc(Cl)cc3Cl)no2)c1N [Compound 1-227]"
readout_kind = "pIC50"
result = "> 5.00"

